The following variants are shown together with reported protein stability index values.
B1: TPD52L1 (parent)
chain: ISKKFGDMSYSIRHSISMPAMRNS

Variants of: B1
Assay: protein stability index of a GFP-peptide fusion (GPS, HEK-293T) (PSI 1-6); higher = more stable;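 also: lentivirally expressed fusions sorted by FACS into six bins by GFP to DsRed ratio, PSI derived from sequencing read proportions per bin multiplied by bin number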
Settings: c terminus: a fixed tail appended
Answer with a number only.

In plain terms, ISKKFGDMSYSIRHSKSMPAMRNS [I16K] has a documented protein stability index of 2.98

Query ISKKFQDMSYSIRHSISMPAMRNS [G6Q] yields protein stability index of 2.19

// sample ISKKFGDMSYSIPHSISMPAMRNS [R13P] , its protein stability index was 2.67

Reported protein stability index ( ISKKFGDMSYSIRHSISMPAMHNS [R22H] ) = 2.56

Memo: ISKKFGSMSYSIRHSISMPAMRNS [D7S] , reported protein stability index: 2.34

Lookup result for ISKKFGDMSYSMRHSISMPAMRNS [I12M] ; measured protein stability index: 2.44

// protein stability index value for ISKKFGDMSYSIRHSISRPAMRNS [M18R] : 2.34

Form field protein stability index, entry WSKKFGDMSYSIRHSISMPAMRNS [I1W] : 2.2

More entries:
response.value for ISKKFGDMSYSIRHSISMPGMRNS [A20G] (field: protein stability index) = 1.67

Documented protein stability index of ISKKNGDMSYSIRHSISMPAMRNS [F5N] : 2.48

GET /value?item= ISQKFGDMSYSIRHSISMPAMRNS [K3Q] &field=protein stability index returns 2.25

Form: variant = ISKKFGDMSYQIRHSISMPAMRNS [S11Q] ; protein stability index = 2.22

# protein stability index (variant: ISKKFGDMSASIRHSISMPAMRNS [Y10A] ) is 2.91

Lookup result for ISKKFGDMSKSIRHSISMPAMRNS [Y10K] ; measured protein stability index: 2.57

The recorded protein stability index for ISIKFGDMSYSIRHSISMPAMRNS [K3I] is 3.53

ISKKFGDMSYSIRHSISQPAMRNS [M18Q] yielded protein stability index of 2.77

Looking up ISKKFGDMSYSILHSISMPAMRNS [R13L] , I see its protein stability index listed as 1.77

Per the record, ISKKFWDMSYSIRHSISMPAMRNS [G6W] has protein stability index of 2.38

Note to self: protein stability index recorded for ISKKFGDMSYSIRHTISMPAMRNS [S15T] was 1.88

The reported protein stability index of the variant RSKKFGDMSYSIRHSISMPAMRNS [I1R] was 2.16

variant ISKKFGDMSYSSRHSISMPAMRNS [I12S] , protein stability index observed: 2.41

According to the records, this variant ISKKFGDMSFSIRHSISMPAMRNS [Y10F] displays protein stability index of 2.01
